Assay: Compound cytotoxicity, XTT-based colorimetric assay
Type: cell-based
Details: human, uninfected MT2 cells, day 4, XTT
Give CC50 at 4 days for every item shown.

Please review the following examples before continuing.
[[record]]
chemicalstructure = "COc1ccc(N(C)C(=O)[C@H](Cc2ccccc2)NC(=O)COc2nc3ccccc3n(CC(=O)N[C@@H](Cc3ccccc3)C(=O)N(C)c3ccc(OC)cc3)c2=O)cc1"
reading = "≥ 50 µM"

[[record]]
chemicalstructure = "CCCN(C(=O)[C@H](Cc1cc(F)cc(F)c1)NC(=O)NS(=O)(=O)N[C@@H](Cc1cc(F)cc(F)c1)C(=O)N(CCC)c1ccc2nccnc2c1)c1ccc2nccnc2c1"
reading = "≥ 33.3 µM"

[[record]]
chemicalstructure = "C=CCN(C(=O)[C@H](Cc1cc(F)cc(F)c1)NS(=O)(=O)c1cccc(S(=O)(=O)N[C@@H](Cc2cc(F)cc(F)c2)C(=O)N(CC=C)c2ccc(OC)cc2)c1)c1ccc(OC)cc1"
reading = "≥ 100 µM"


API: the following record is the query input.
Lookup: Please give the measured CC50 at 4 days for this molecule: COc1ccc(N(C)C(=O)[C@H](Cc2ccccc2)NC(=O)c2ccccc2-c2ccccc2C(=O)N[C@@H](Cc2ccccc2)C(=O)N(C)c2ccc(OC)cc2)cc1
Found: ≥ 100 µM

----------
Experiment: Compound cytotoxicity, XTT-based colorimetric assay
Assay type: cell-based
Conditions: human, uninfected MT2 cells, day 4, XTT
observable: CC50 at 4 days

Guide cases for CC50 at 4 days, answers given:
[[record]]
chemicalstructure = "C=CCN(C(=O)[C@H](Cc1cc(F)cc(F)c1)NS(=O)(=O)CS(=O)(=O)N[C@@H](Cc1cc(F)cc(F)c1)C(=O)N(CC=C)c1ccc(OC)cc1)c1ccc(OC)cc1"
observable = "CC50 at 4 days"
reading = "≥ 100 µM"

[[record]]
chemicalstructure = "C=CCN(C(=O)[C@H](Cc1cc(F)cc(F)c1)NS(=O)(=O)c1ccccc1S(=O)(=O)N[C@@H](Cc1cc(F)cc(F)c1)C(=O)N(CC=C)c1ccc(OC)cc1)c1ccc(OC)cc1"
observable = "CC50 at 4 days"
reading = "≥ 33.3 µM"


Hey, quick one: what's CC50 at 4 days for each of these?
1. COc1ccc(N(C)C(=O)[C@H](Cc2cc(F)cc(F)c2)NC(=O)Cn2c(=O)c3ccccc3n(CC(=O)N[C@@H](Cc3cc(F)cc(F)c3)C(=O)N(C)c3ccc(OC)cc3)c2=O)cc1
2. COc1ccc(N(C)C(=O)[C@H](Cc2ccccc2)NC(=O)NS(=O)(=O)N[C@@H](Cc2ccccc2)C(=O)N2CCCC2)cc1
3. COc1ccc(N(C)C(=O)[C@H](Cc2cc(F)cc(F)c2)NC(=O)NS(=O)(=O)N[C@@H](Cc2cc(F)cc(F)c2)C(=O)N(C)c2ccc(OC)nc2)cn1
4. CCN(C(=O)[C@H](Cc1cc(F)cc(F)c1)NC(=O)NS(=O)(=O)N[C@@H](Cc1cc(F)cc(F)c1)C(=O)N(CC)c1ccc2oc(=O)n(CC)c2c1)c1ccc2oc(=O)n(CC)c2c1
5. CN(C(=O)[C@H](Cc1cc(F)cc(F)c1)NC(=O)c1cccc(C(=O)N[C@@H](Cc2cc(F)cc(F)c2)C(=O)N(C)c2ccc3scnc3c2)c1)c1ccc2scnc2c1
6. COc1ccc(N(C)C(=O)[C@H](Cc2ccccc2)NC(=O)c2cncc(C(=O)N[C@@H](Cc3ccccc3)C(=O)N(C)c3ccc(OC)cc3)n2)cc1

Found:
1: ≥ 100 µM; 2: ≥ 33.3 µM; 3: ≥ 100 µM; 4: ≥ 50 µM; 5: ≥ 100 µM; 6: ≥ 100 µM

----------
For each entry below, report its CC50 at 4 days value.
Assay: Compound cytotoxicity, XTT-based colorimetric assay
Assay type: cell-based
Settings: human, uninfected MT2 cells, day 4, XTT

Sample records with CC50 at 4 days:
[[record]]
molecule = "COc1ccc(N(C)C(=O)[C@H](Cc2cc(F)cc(F)c2)NC(=O)COc2nc3ccccc3n(CC(=O)N[C@@H](Cc3cc(F)cc(F)c3)C(=O)N(C)c3ccc(OC)cc3)c2=O)cc1 [Example 96]"
reading = "≥ 50 µM"

[[record]]
molecule = "Cc1ncc(N(C)C(=O)[C@H](Cc2cc(F)cc(F)c2)NC(=O)NS(=O)(=O)N[C@@H](Cc2cc(F)cc(F)c2)C(=O)N(C)c2cnc(C)nc2)cn1 [Example 207]"
reading = "≥ 25 µM"


Here's the next entry for you.
Lookup: Please report the recorded CC50 at 4 days for CN(C(=O)[C@H](Cc1cc(F)cc(F)c1)NC(=O)NS(=O)(=O)N[C@@H](Cc1cc(F)cc(F)c1)C(=O)N(C)c1ccc(=O)n(C)c1)c1ccc(=O)n(C)c1 [Example 174] .
Found: ≥ 100 µM

----------
Experiment: Compound cytotoxicity, XTT-based colorimetric assay
Type: cell-based
Conditions: human, uninfected MT2 cells, day 4, XTT
observable: CC50 at 4 days

List the reported CC50 at 4 days of each compound below.
1. COc1ccc(N(C)C(=O)[C@H](Cc2ccccc2)NC(=O)[C@H](Cc2ccccc2)NC(=O)N[C@@H](Cc2ccccc2)C(=O)N[C@@H](Cc2ccccc2)C(=O)N(C)c2ccc(OC)cc2)cc1
2. CCN(C(=O)[C@H](Cc1cc(F)cc(F)c1)NC(=O)CN1c2ccccc2N(CC(=O)N[C@@H](Cc2cc(F)cc(F)c2)C(=O)N(CC)c2ccc(NC(=O)OC)cc2)S1(=O)=O)c1ccc(NC(=O)OC)cc1
3. C=CCN(C(=O)[C@H](Cc1cc(F)cc(F)c1)NS(=O)(=O)CCCS(=O)(=O)N[C@@H](Cc1cc(F)cc(F)c1)C(=O)N(CC=C)c1ccc(OC)cc1)c1ccc(OC)cc1
4. COc1ccc(N(CCF)C(=O)[C@H](Cc2cc(F)cc(F)c2)NC(=O)CN2c3ccccc3N(CC(=O)N[C@@H](Cc3cc(F)cc(F)c3)C(=O)N(CCF)c3ccc(OC)cc3)S2(=O)=O)cc1

Found:
1. ≥ 100 µM
2. ≥ 100 µM
3. ≥ 100 µM
4. ≥ 100 µM

----------
Assay: Compound cytotoxicity, XTT-based colorimetric assay
Format: cell-based
Details: human, uninfected MT2 cells, day 4, XTT
observable: CC50 at 4 days (µM)
Give bare numbers, in µM.

[[record]]
chemicalstructure = "CN(C(=O)[C@H](Cc1cc(F)cc(F)c1)NC(=O)NS(=O)(=O)N[C@@H](Cc1cc(F)cc(F)c1)C(=O)N(C)c1ccc(F)c(F)c1)c1ccc(F)c(F)c1"
reading = 34.5

[[record]]
chemicalstructure = "COc1ccc(N(C)C(=O)[C@H](Cc2ccccc2)NC(=O)CCC(=O)N[C@@H](Cc2ccccc2)C(=O)N(C)c2ccc(OC)cc2)cc1"
reading = 27

[[record]]
chemicalstructure = "COc1ccc(N(C)C(=O)[C@H](Cc2ccccc2)NC(=O)[C@@H]2CC[C@H](C(=O)N[C@@H](Cc3ccccc3)C(=O)N(C)c3ccc(OC)cc3)C2)cc1"
reading = 22.6

[[record]]
chemicalstructure = "COc1ccc(N(C)C(=O)[C@H](Cc2ccccc2)NC(=O)Cn2c(=O)c(=O)n(CC(=O)N[C@@H](Cc3ccccc3)C(=O)N(C)c3ccc(OC)cc3)c3ccccc32)cc1"
reading = 23.2

[[record]]
chemicalstructure = "COc1ccc(N(C)C(=O)[C@H](Cc2ccccc2)NC(=O)c2cccc(C(=O)N[C@@H](Cc3ccccc3)C(=O)N(C)c3ccc(OC)cc3)c2)cc1"
reading = 4.2


Lookup: For CCN(C(=O)[C@H](Cc1cc(F)cc(F)c1)NC(=O)NS(=O)(=O)N[C@@H](Cc1cc(F)cc(F)c1)C(=O)N(CC)c1ccc2scnc2c1)c1ccc2scnc2c1 , what is its reported CC50 at 4 days?
Found: 99.3

----------
Give measured CC50 at 4 days for each item. Keep answers brief.
Assay: Compound cytotoxicity, XTT-based colorimetric assay
Format: cell-based
Conditions: human, uninfected MT2 cells, day 4, XTT
Description: Compound cytotoxicity and the corresponding CC50 values were determined using the same protocol as described in the antiviral assay except that uninfected cells were used. Cytotoxicity was assessed on day 4 in uninfected MT2 cells by using a XTT (2,3-bis[2-Methoxy-4-nitro-5-sulfophenyl]-2H-tetrazolium-5-carboxyanilide inner salt)-based colorimetric assay (Sigma-Aldrich, St Louis, Mo.).

Here is how some compounds turned out for CC50 at 4 days.
[[record]]
compound = "CN(C(=O)[C@H](Cc1cc(F)cc(F)c1)NC(=O)NS(=O)(=O)N[C@@H](Cc1cc(F)cc(F)c1)C(=O)N(C)c1ccc2nccnc2c1)c1ccc2nccnc2c1"
observable = "CC50 at 4 days"
reading = "≥ 100 µM"

[[record]]
compound = "C=CCN(C(=O)[C@H](Cc1cc(F)cc(F)c1)NC(=O)CCC(=O)N[C@@H](Cc1cc(F)cc(F)c1)C(=O)N(CC=C)c1ccc(OC)cc1)c1ccc(OC)cc1"
observable = "CC50 at 4 days"
reading = "28.4 µM"

[[record]]
compound = "COc1ccc(-n2ccnc2C(Cc2ccccc2)NC(=O)CN2c3ccccc3N(CC(=O)N[C@@H](Cc3ccccc3)c3nccn3-c3ccc(OC)cc3)S2(=O)=O)cc1 (some centres unmarked)"
observable = "CC50 at 4 days"
reading = "≥ 100 µM"

[[record]]
compound = "COc1ccc(N(C)C(=O)[C@H](Cc2cc(F)cc(F)c2)NC(=O)c2ccc(F)c(C(=O)N[C@@H](Cc3cc(F)cc(F)c3)C(=O)N(C)c3ccc(OC)nc3)c2)cn1"
observable = "CC50 at 4 days"
reading = "≥ 100 µM"


For each of the compounds below, note its CC50 at 4 days.
1. CN(C(=O)[C@H](Cc1cc(F)cc(F)c1)NC(=O)NS(=O)(=O)N[C@@H](Cc1cc(F)cc(F)c1)C(=O)N(C)c1ccc(C(C)(C)C)cc1)c1ccc(C(C)(C)C)cc1
2. CN(C(=O)[C@H](Cc1cc(F)cc(F)c1)NC(=O)c1cccc(S(=O)(=O)N[C@@H](Cc2cc(F)cc(F)c2)C(=O)N(C)c2ccc3scnc3c2)c1)c1ccc2scnc2c1
3. C=CCN(C(=O)[C@H](Cc1cc(F)cc(F)c1)NC(=O)c1ccccc1S(=O)(=O)N[C@@H](Cc1cc(F)cc(F)c1)C(=O)N(CC=C)c1ccc(OC)cc1)c1ccc(OC)cc1
4. COc1ccc(N(C)C(=O)[C@H](Cc2cc(F)cc(F)c2)Nc2ncc(-c3cnc(N[C@@H](Cc4cc(F)cc(F)c4)C(=O)N(C)c4ccc(OC)cc4)nc3)cn2)cc1
5. CN(C(=O)[C@H](Cc1cc(F)cc(F)c1)NC(=O)NS(=O)(=O)N[C@@H](Cc1cc(F)cc(F)c1)C(=O)N(C)c1ccc(C2CC2)nc1)c1ccc(C2CC2)nc1

Found:
["16.2 µM", "≥ 100 µM", "≥ 100 µM", "20.8 µM", "85.8 µM"]

Give one value of CC50 at 4 days per listed compound.
1. C=CCN(C(=O)[C@H](Cc1cc(F)cc(F)c1)NC(=O)CC(C)(C)CC(=O)N[C@@H](Cc1cc(F)cc(F)c1)C(=O)N(CC=C)c1ccc(OC)cc1)c1ccc(OC)cc1
2. COc1ccc(N(C)C(=O)[C@H](Cc2ccccc2)NC(=O)c2cc(C(=O)N[C@@H](Cc3ccccc3)C(=O)N(C)c3ccc(OC)cc3)cc(C(C)(C)C)c2)cc1

Found:
1. ≥ 100 µM
2. ≥ 33.3 µM
